Property: protein stability index; scope: individual variants
B1: BTBD10 (parent)
chain: FVYENAKEGARNIRTSERVTLIVD

variants of: B1; test: protein stability index of a GFP-peptide fusion (GPS, HEK-293T) (PSI 1-6); higher = more stable; settings: c terminus: a fixed tail appended;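 note: lentivirally expressed fusions sorted by FACS into six bins by GFP to DsRed ratio, PSI derived from sequencing read proportions per bin multiplied by bin number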

{"columns": ["SEQ", "protein stability index"],
 "data": [
  ["FVYENAKEGARNIRTSEGVTLIVD [R18G]", 2.31],
  ["FVYENAKEGADNIRTSERVTLIVD [R11D]", 2.82],
  ["FVYYNAKEGARNIRTSERVTLIVD [E4Y]", 1.92],
  ["FVYENAKEGAVNIRTSERVTLIVD [R11V]", 2.3],
  ["FVYENAKEGARNIRTSEFVTLIVD [R18F]", 2.16],
  ["FVYENNKEGARNIRTSERVTLIVD [A6N]", 2.43],
  ["FVYENAKEGARNIRTFERVTLIVD [S16F]", 1.58],
  ["FVYENAKEGARNIRTSERVTLIVT [D24T]", 2.5],
  ["FVYENAKEGARNIRTSSRVTLIVD [E17S]", 1.91],
  ["FVYENAKEGASNIRTSERVTLIVD [R11S]", 2.18],
  ["FVYENATEGARNIRTSERVTLIVD [K7T]", 2.11]
]}
